# System: NCI-H322M lung
# assay remarks: NCI-60 one-dose screen, 48 h (100 = growth as untreated, 0 = no growth, -100 = all killed)
# setup conditions: 10 µM unless noted
This is part of a sample that, as a whole, favours compounds with a hit. Of some 83,000 tested, about 20% had one in any assay.
reported property: growth (%)
The reply should contain only the number, in %.

// known answers, use as guide
compound: CC(=O)N1N=C2N(Cc3ccccc3)C(=O)c3c(sc4c3CCCC4)N2C1c1cn(-c2ccccc2)nc1-c1ccc(Cl)cc1 (stereo not given)
growth [%]: 97.9
--
compound: COc1ccccc1N1CCN(CC(O)COc2c(Br)c(Br)c(Br)c3c2OC(C)(C)C3)CC1 (stereo not given)
growth [%]: 59.9

Inquiry: Requested field: growth. Item: O=C(Nc1ccccc1F)Nc1ccccc1Cl
Reply text: 103

Inquiry: Also, COc1cc(CN(c2ccc(Cl)cc2)C2OC(=O)c3ccccc32)cc(OC)c1OC (stereo not given) please.
Reply text: 88.8

Inquiry: Also, CCNc1ncnc2n[nH]nc12 please.
Reply text: 101

Inquiry: Also, CC(C)Cn1cnc2c3ccccc3nc(NCn3nc(-c4cc(Cl)cc(Cl)c4Cl)oc3=S)c21 please.
Reply text: 91.6

Inquiry: Also, CCCCOc1nc2ccc(Cl)cc2cc1/C=C/C(=O)/C=C/c1ccc(Cl)cc1 please.
Reply text: 95.7

Inquiry: Also, CN(C)C(=O)Nc1nc2cc(Cl)c(Cl)cc2[nH]1 please.
Reply text: 39.9

Inquiry: Also, Nc1ccc(S(=O)(=O)Nc2cc(I)cc(I)c2)cc1 please.
Reply text: 94.8

Inquiry: Also, O=S1(=O)N(CCNc2nccc(-c3c(-c4cccc(O)c4)nc4sccn34)n2)CCN1Cc1ccccc1 please.
Reply text: 101

---

# Test system: SN12C renal
# assay remarks: NCI-60 one-dose screen, 48 h (100 = growth as untreated, 0 = no growth, -100 = all killed)
# setup conditions: 10 µM unless noted
# Method: Growth inhibition of the SN12C human tumor cell line is measured as a screen for anti-cancer activity. Cells are grown in 96 well plates and exposed to the test compound for 48 hours. Compounds are tested at a single concentration, which is 10^-5 M for most compounds. The reported endpoint is percent growth (GI% or GIPRCNT), where numbers from 0 - 100% represent growth inhibition, and numbers from -100% - 0 represent cell death. For example, a value of 40 represents 60% growth inhibition. […]
The panel holds about 83,000 compounds, 20% with a hit somewhere; the sample as a whole holds those more often.
Each entry below carries its recorded growth.
The reply should contain only the number, in %.

// known answers, use as guide
structure: COc1ccc(/C=C/C(=O)c2ccc(-n3cc(CN4CCN(c5cc6c(cc5F)c(=O)c(C(=O)O)cn6C5CC5)CC4)nn3)cc2)cc1OC
growth [%]: 14.9
--
structure: O=C(O)c1cccc(S(=O)(=O)c2ccccc2)c1
growth [%]: 102
--
structure: O=C(Nc1ccc(-n2cc(-c3ccncc3)c(-c3ccc(O)c(Cl)c3)n2)cc1)Nc1ccc(Cl)c(C(F)(F)F)c1
growth [%]: 19.1
--
structure: COc1ccc(N)c(S)c1
growth [%]: 94.4
--
structure: Nc1ncc(-c2ccc3ncnc(Nc4cncc(Cl)c4)c3c2)cn1
growth [%]: 69.8
--
structure: COc1ccc(/C(Cl)=N/N=C(\Cl)c2cc(OC)c(OC)c(OC)c2)cc1OC(C)=O
growth [%]: 96.1
--
structure: CSc1ccc(C(=O)C[n+]2cccc(C)c2)cc1
growth [%]: 99.9
--
structure: CN1CCN(Cn2nc(-c3cc(Cl)cc(Cl)c3Cl)n(/N=C/c3ccc(Cl)cc3)c2=S)CC1
growth [%]: 96.4
--
structure: O=C(O)c1ccc(-n2cc(/C=N/Nc3ccc(F)cc3)c(-c3cccc(C(F)(F)F)c3)n2)cc1
growth [%]: 86.9

Now take the following molecule into account.
Inquiry: Requested field: growth. Item: COc1ccc2c(c1)C(=O)/C(=C/c1ccc(OCC(=O)c3ccc(Cl)cc3)cc1)O2
Reply text: 92.2

---

# Test system: U251 CNS
# assay remarks: NCI-60 one-dose screen, 48 h (100 = growth as untreated, 0 = no growth, -100 = all killed)
# setup conditions: 10 µM unless noted
The panel holds about 83,000 compounds, 20% with a hit somewhere; the sample as a whole holds those more often.
Just a reminder that ties go to Not fulfilled: only growth strictly below 40% counts as Fulfilled.

Example cases with answers are listed next.
molecule: COc1ccc(OCC(O)CN2CCN(c3ccc(Cl)cc3)CC2)cc1 (stereo not given)
tested system: U251 CNS
assigned class: Not fulfilled
--
molecule: Nn1c(SCC(=O)Nc2cc(Cl)c(Cl)cc2Cl)nnc1-c1cc(F)c(Cl)cc1Cl
tested system: U251 CNS
assigned class: Not fulfilled

Inquiry: Could you please tell me whether growth recorded for COc1ccc(/C=N/C2=NNC(C)(c3ccccc3O)N2C(Cc2c[nH]c3ccccc23)C(=O)O)cc1 (stereo not given) is less than 40%?
Reply text: Fulfilled

Inquiry: Also, O=[N+]([O-])c1ccc(NS(=O)(=O)c2ccccc2)c2ccccc12 please.
Reply text: Fulfilled

Inquiry: Also, OC[C@@H](O)C(O[C@@H]1O[C@H](CO)[C@H](O)[C@H](O)[C@H]1O)[C@H](O)[C@@H](O)CO (stereo not given in full) please.
Reply text: Not fulfilled

---

Each entry below carries its recorded growth.
# Tested on: 786-0 renal
# assay remarks: NCI-60 one-dose screen, 48 h (100 = growth as untreated, 0 = no growth, -100 = all killed)
# setup conditions: 10 µM unless noted
About 83,000 compounds went through this panel and 20% of them were active in at least one assay; those are over-represented in the sample as a whole.
The reply should contain only the number, in %.

// known answers, use as guide
compound: Cc1ccc(Cn2cc(COc3ccc4c5ccnc(C)c5n(CCCc5ccccc5)c4c3)nn2)cc1
growth (%): 85.9
//
compound: COc1cc(-c2nc(N)n(CC(=O)Nc3ccc(/C(C)=N\O)cc3)n2)cc(OC)c1OC
growth (%): 104
//
compound: Cc1ccc2nc(-c3ccc(-n4on4-c4ccc(/C=C/c5ccc(-n6on6-c6ccc(-c7nc8ccc(C)cc8s7)cc6)cc5S(=O)(=O)O)c(S(=O)(=O)O)c4)cc3)sc2c1
growth (%): 98.2

Inquiry: Requested field: growth. Item: COc1ccc(OCC(O)CN2CCN(c3ccc(Cl)cc3)CC2)cc1 (stereo not given)
Reply text: 151

Inquiry: Also, O=C(N/N=C/c1ccccc1O)c1ccccc1O please.
Reply text: 25.8

---

# Test system: A549/ATCC NSCLC
# assay remarks: NCI-60 one-dose screen, 48 h
# setup conditions: 10 µM unless noted
Compounds without any hit were thinned out: in the full panel of roughly 83,000, 20% have a hit. Active and inactive are the calls of the source. How the source made its calls: active means growth percent below 10; inactive means the rest.
A correct response names exactly one class from 1.0 = active, 0.0 = inactive

compound: O=C(Nc1cccc(-n2ccc3c(NC(=O)c4ccccc4)nccc32)c1)Nc1cc(C(F)(F)F)cc(C(F)(F)F)c1
tested system: A549/ATCC NSCLC
assigned class: 1.0

Inquiry: Record request — test call for COc1ccc(-c2ccc(NC(=O)Nc3ccc(Cl)c(C(F)(F)F)c3)c(C)n2)cc1
Reply text: 0.0

Inquiry: Also, COc1ccc(/C=C/C(=O)/C=C(/C=C/c2ccc(OC)c(OC)c2OC)OB(F)F)c(OC)c1OC please.
Reply text: 0.0

Inquiry: Also, CCOc1ccc(Cc2nccc3cc(OCC)c(OCC)cc23)cc1OCC please.
Reply text: 0.0

Inquiry: Also, CCOC(=O)C1CSC(C)(C(=O)OCC)N1 (stereo not given) please.
Reply text: 0.0

Inquiry: Also, Nn1c(SCC(=O)Nc2cc(Cl)c(Cl)cc2Cl)nnc1-c1cc(F)c(Cl)cc1Cl please.
Reply text: 0.0

Inquiry: Also, CC1(C)N=C(N)N=C(N)N1c1ccc(OCC(=O)Nc2ccccc2)c(Cl)c1 please.
Reply text: 0.0

Inquiry: Also, NC(N)=N/N=C/c1ccc([N+](=O)[O-])cc1 please.
Reply text: 0.0

Inquiry: Also, CCCCOc1nc2ccc(Cl)cc2cc1/C=C/C(=O)/C=C/c1ccc(OC)cc1 please.
Reply text: 0.0

Inquiry: Also, O=C(COc1ccc(Cl)cc1)N1CCN(Cc2ccc3c(c2)OCO3)CC1 please.
Reply text: 0.0

Inquiry: Also, C=C1C(=O)O[C@H]2[C@H]1CC/C(CNC(=O)/C1=C/CC[C@@]3(C)O[C@H]3[C@H]3OC(=O)C(=C)[C@@H]3CC1)=C\CC[C@@]1(C)O[C@@H]21 please.
Reply text: 0.0

---

Each entry below carries its recorded growth.
# Tested on: HCT-116 colon
# assay remarks: NCI-60 one-dose screen, 48 h (100 = growth as untreated, 0 = no growth, -100 = all killed)
# setup conditions: 10 µM unless noted
This is part of a sample that, as a whole, favours compounds with a hit. Of some 83,000 tested, about 20% had one in any assay.
The reply should contain only the number, in %.

// known answers, use as guide
structure: C=C1C(=O)O[C@H]2[C@H]1CC/C(COC(=O)c1ccc(C#N)cc1)=C\CC[C@@]1(C)O[C@@H]21
unit string: %
growth: -60.3
--
structure: CC(=O)c1cc2c(c(O)c1C)C(=O)C(=O)c1c(O)cccc1-2
unit string: %
growth: -85.9
--
structure: Cc1c(C(C)(C)C)cc(C(C)(C)C)c2c1CN(C)CO2
unit string: %
growth: 104

Inquiry: Requested field: growth. Item: FC(F)(F)c1cn(CCN2CCOCC2)c2ncnc(Cl)c12
Reply text: 15.4

Inquiry: Also, Cc1nccc2c3ccc(OCc4cn(-c5ccc(Br)cc5)nn4)cc3n(CCCc3ccccc3)c12 please.
Reply text: 30.6

Inquiry: Also, O=C(Nc1cccc(-n2ccc3c(NC(=O)c4ccccc4)nccc32)c1)Nc1cc(C(F)(F)F)cc(C(F)(F)F)c1 please.
Reply text: -15.8

Inquiry: Also, CC(/C=C/C=C(\C)[C@H](O)[C@H](C)C(=O)O[C@H]1C[C@H](C)C=C2C=C[C@@]3(C)O[C@@H](O)CC(=O)[C@]3(C)[C@H]21)=C\C=C\C(=O)O please.
Reply text: 2.2

Inquiry: Also, CCOC(=O)c1noc2c1CCc1c-2cn(Cc2ccc(OC)cc2)c1-c1cc(OC)c(OC)c(OC)c1 please.
Reply text: 8.2
